Provenance of the data: patent US8604053B2

Molecular target: CYP3A4 (Homo sapiens)
Construct: human liver microsomes (BD Gentest, 450 μL; final concentration: 0.4 mg/mL); tissue BD Gentest; host or cells: human liver microsomes
Sequence (P08684 whole entry): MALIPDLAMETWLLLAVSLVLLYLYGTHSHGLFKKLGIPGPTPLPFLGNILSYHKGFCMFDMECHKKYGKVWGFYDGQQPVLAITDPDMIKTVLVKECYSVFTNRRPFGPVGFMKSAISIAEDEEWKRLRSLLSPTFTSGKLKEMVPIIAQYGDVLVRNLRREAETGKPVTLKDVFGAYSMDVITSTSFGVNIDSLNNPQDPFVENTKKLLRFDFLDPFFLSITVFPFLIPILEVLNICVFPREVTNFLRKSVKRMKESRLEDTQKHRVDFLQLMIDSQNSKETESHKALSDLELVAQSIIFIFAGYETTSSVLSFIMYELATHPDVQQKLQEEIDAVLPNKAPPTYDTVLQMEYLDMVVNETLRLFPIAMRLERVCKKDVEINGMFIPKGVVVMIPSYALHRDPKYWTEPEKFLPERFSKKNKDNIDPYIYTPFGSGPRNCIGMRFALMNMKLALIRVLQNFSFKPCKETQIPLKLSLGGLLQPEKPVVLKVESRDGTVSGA
Assay: CYP3A4 inhibition assay
Type: in vitro ADME
Conditions: pH 7.4, probe 7-benzyloxyquiniline (BZQ), 50 μM final, human liver microsomes, substrate BZQ, read-out: CYP3A4 % inh @ 2.2 μM
readout_type: inhibition at 25 min, 2.2 µM (%)

{"columns": ["compound", "readout_type", "meas_value"],
 "data": [
  ["Cc1cc2c(NC(=O)N[C@@H]3CC(CF)(CF)Oc4ccc(F)cc43)cccc2cn1 [Example 65]", "inhibition at 25 min, 2.2 µM", 0.57],
  ["CCC1(CC)C[C@@H](NC(=O)Nc2cccc3cnc(C)cc23)c2ccc(Cl)cc2O1 [Example 69]", "inhibition at 25 min, 2.2 µM", 0],
  ["Cc1cc2c(NC(=O)N[C@@H]3C[C@@](C)(CF)Oc4c(F)cccc43)cccc2cn1 [Example 128]", "inhibition at 25 min, 2.2 µM", 0],
  ["Cc1cc2c(NC(=O)N[C@@H]3CC(C)(C)Oc4cc(C(F)(F)F)ccc43)cccc2cn1 [Example 118]", "inhibition at 25 min, 2.2 µM", 0],
  ["CCCC1(CCC)C[C@@H](NC(=O)Nc2cccc3cnc(C)cc23)c2cccc(F)c2O1 [Example 68]", "inhibition at 25 min, 2.2 µM", 6.4],
  ["CCC1(CC)C[C@@H](NC(=O)Nc2cccc3cnc(Cl)cc23)c2cccc(F)c2O1 [Example 81]", "inhibition at 25 min, 2.2 µM", 0],
  ["CC1(C)C[C@@H](NC(=O)Nc2cccc3cnccc23)c2cc(F)ccc2O1 [Example 5]", "inhibition at 25 min, 2.2 µM", 61],
  ["Cc1cc2c(NC(=O)N[C@@H]3CCOc4c(OC(F)(F)F)cccc43)cccc2cn1 [Example 66]", "inhibition at 25 min, 2.2 µM", 0],
  ["Cc1cc2c(NC(=O)N[C@@H]3CC(CF)(CF)Oc4c(Cl)cccc43)cccc2cn1 [Example 91]", "inhibition at 25 min, 2.2 µM", 3.8],
  ["CC1(C)C[C@@H](NC(=O)Nc2cccc3cnccc23)c2ccc(F)cc2O1 [Example 23]", "inhibition at 25 min, 2.2 µM", 69],
  ["CCC1(CC)C[C@@H](NC(=O)Nc2cccc3cnccc23)c2cc(F)ccc2O1 [Example 28]", "inhibition at 25 min, 2.2 µM", 19],
  ["Cc1cc2c(NC(=O)N[C@@H]3CC(C)(C)Oc4c(OC(F)(F)F)cccc43)cccc2cn1 [Example 94]", "inhibition at 25 min, 2.2 µM", 0],
  ["Cc1cc2c(NC(=O)N[C@@H]3C[C@](C)(CF)Oc4cc(Cl)ccc43)cccc2cn1 (single isomer, unassigned) [Example 121]", "inhibition at 25 min, 2.2 µM", 23]
]}

----------
compounds and their reported Δ Temp (° C.)
Assay: Rat telemetry protocol, core body temperature
Type: in vivo
Conditions: core body temperature of rats one hour post dosing, 100 μmol/kg p.o., relative to vehicle
readout_type: Δ Temp (° C.) (°C)

{"columns": ["compound", "readout_type", "meas_value"],
 "data": [
  ["Cc1cc2c(NC(=O)N[C@@H]3C[C@](C)(CF)Oc4c(F)cccc43)cccc2cn1 [Example 126]", "Δ Temp (° C.)", 0.0],
  ["Cc1cc2c(NC(=O)N[C@@H]3CC(CF)(CF)Oc4cc(Cl)ccc43)cccc2cn1 [Example 84]", "Δ Temp (° C.)", 0.0],
  ["Cc1cc2c(NC(=O)N[C@@H]3CC(CF)(CF)Oc4cc(F)ccc43)cccc2cn1 [Example 96]", "Δ Temp (° C.)", 0.0],
  ["Cc1cc2c(NC(=O)N[C@@H]3C[C@@](C)(C(F)F)Oc4cc(Cl)ccc43)cccc2cn1 (single isomer, unassigned) [Example 124]", "Δ Temp (° C.)", 0.0],
  ["Cc1cc2c(NC(=O)N[C@@H]3CC(C)(C)Oc4c3ccc(F)c4F)cccc2cn1 [Example 113]", "Δ Temp (° C.)", 0.0],
  ["Cc1cc2c(NC(=O)N[C@@H]3C[C@](C)(CF)Oc4cc(Cl)ccc43)cccc2cn1 (single isomer, unassigned) [Example 121]", "Δ Temp (° C.)", 0.0],
  ["Cc1cc2c(NC(=O)N[C@@H]3C[C@@](C)(CF)Oc4cc(Cl)ccc43)cccc2cn1 (single isomer, unassigned) [Example 122]", "Δ Temp (° C.)", 0.0],
  ["Cc1cc2c(NC(=O)N[C@@H]3CC(C)(C)Oc4c(F)cccc43)cccc2cn1 [Example 119]", "Δ Temp (° C.)", 0.0],
  ["Cc1cc2c(NC(=O)N[C@@H]3CC(C)(C)Oc4cc(C(F)(F)F)ccc43)cccc2cn1 [Example 118]", "Δ Temp (° C.)", 0.0]
]}
